Target: Protein kinase C beta type (Homo sapiens)
Assay: Inhibition of recombinant full length human GST-tagged PKCbeta-1 expressed in insect cells at 500 nM by Z-LYTE assay relative to control
measured.attribute: inhibition (%)

{"columns": ["smi", "measured.attribute", "result.value"],
 "data": [
  ["OCc1ccc(-c2cc3c(N[C@H](CO)c4ccccc4)ncnc3[nH]2)cc1", "inhibition", -1],
  ["OC[C@@H](Nc1ncnc2sc(-c3ccc(O)cc3)cc12)c1ccccc1", "inhibition", -9],
  ["CN(C)CCn1cc(-c2cccc(O)c2)c2c(N)ncnc21", "inhibition", 8],
  ["CCC(=O)Nc1ccc(-c2c[nH]c3ncnc(N[C@H](C)c4ccccc4)c23)cc1", "inhibition", 14]
]}

Data origin: ChEMBL document CHEMBL4152312
